# tgt: Human glucokinase (Homo sapiens)
# Construct: the glucokinase polypeptide beginning with Ser-6 is obtained; GST (N, cleaved yes); made in house; host or cells: E. coli BL21
# Sequence (P35557 6-464 isoform P35557-3 limits assumed): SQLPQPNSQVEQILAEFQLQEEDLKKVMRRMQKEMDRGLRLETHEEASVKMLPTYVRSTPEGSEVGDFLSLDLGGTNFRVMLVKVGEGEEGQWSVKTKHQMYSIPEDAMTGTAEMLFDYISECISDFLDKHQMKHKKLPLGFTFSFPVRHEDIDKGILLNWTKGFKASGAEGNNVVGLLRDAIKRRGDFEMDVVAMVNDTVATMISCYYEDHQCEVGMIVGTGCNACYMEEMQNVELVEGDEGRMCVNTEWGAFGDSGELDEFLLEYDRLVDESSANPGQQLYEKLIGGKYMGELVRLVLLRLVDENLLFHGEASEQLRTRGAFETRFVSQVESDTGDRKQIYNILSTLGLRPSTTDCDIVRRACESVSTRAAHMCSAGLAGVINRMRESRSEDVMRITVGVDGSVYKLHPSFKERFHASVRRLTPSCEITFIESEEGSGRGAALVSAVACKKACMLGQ
# protocol.summary: Enzymatic test of glucokinase activators (coupled optical test)
# Assay type: biochemical
# measurement.setup: maximum fold stimulation: highest change in extinction in the concentration range 0.1-100 μM relative to change without test substance; 5 mM glucose
reported.metric: Fold induction

[[record]]
compound = "COc1ccc2nc(NC(=O)C(C[C@H]3CCC(=O)C3)c3ccc4c(c3)N(C)c3ccccc3S4(=O)=O)sc2n1 (stereo partly shown)"
number = 3.9

[[record]]
compound = "COc1ccc2nc(NC(=O)C(CC3CCOCC3)c3ccc4c(c3)N(C)c3ccccc3S4(=O)=O)sc2n1 (stereo not shown)"
number = 5.0

[[record]]
compound = "Cn1ccc(NC(=O)C(CC2CC=C(F)CC2)c2ccc3c(c2)Nc2ccccc2S3(=O)=O)n1 (stereo not shown)"
number = 4.5

[[record]]
compound = "CCOC(=O)c1ccc2c(c1)S(=O)(=O)c1ccc(C(CC3CCC(=O)C3)C(=O)Nc3ccn(C)n3)cc1N2C (stereo not shown)"
number = 3.6

